Test system: MS2 coat protein
Test: apparent KD of MS2 coat protein; higher = weaker reporter binding
Details: Eterna round: R107; input ligand: arginine 13.2 mM
endpoint label: apparent KD of MS2 coat protein (nM)

{"item sequence": "UCACAUGAGGAUCACCCAUGUCCAGGUGAAGGAGCGAUUAGGGAGUCAGGUAGGUCGCACCACAUGAGGAUCACCCAUGUGCCUG [EAA NP+V+V2 #8 DOUBLE]", "result units": "nM", "result": 18.4}
{"item sequence": "GCAUCCUAGUCGGCCGCCACUGCAGGAUCGGCGGCAGAUCCUCAACAUGAGGAUCACCCAUGUAGCAGGACCGGGACUAGGAUGC [(Trp1)-(TM)''-(TM)'-(Ms2)-(Trp2)_Design2]", "result units": "nM", "result": 36.3}
{"item sequence": "GAGUAGAGGACGGCCGCCACUGAACAUGAGGAUCACCCAUGUCGUGAUCCGUUACCUAAAGAAGAUAGGACCGGGUCAUGUACUC [Exclusion Tryptophan B GF 19]", "result units": "nM", "result": 28.9}
{"item sequence": "UAGUUAGCGGCGGCCGCCACUCGAGAUAUAACAUGAUAUCAUAACAUGAGGAUCACCCAUGUCACGAGGACCGGGCCGAUCUUCA [Same State Typptophan B GF6]", "result units": "nM", "result": 27.9}
{"item sequence": "AAUGGCCGUACCGGAAGGGUGAUCCUCAAACGAGGACCGGUACGGCCGCCACUCGAUAACAUGAGGAUCACCCAUGUAAUAAUAA [|T'-M'-Trp-Ms2|_Design13]", "result units": "nM", "result": 85}
{"item sequence": "AUACCUAAUGUUACAUUUACCUUAUCAGAUACCAGACUUUACGUUGUCCCUUGGCAGCUGUAUCACAUGAGGAUCACCCAUGUUG [JR_SSTheophyA_Sub010]", "result units": "nM", "result": 17.1}
{"item sequence": "GGAUAGAUAGGAGAUACCAGAUACAUCAACAUGAGGAUCACCCAUGUGUCUGCACUAAGUGUCCCUUGGCAGCUCGGAGAUCUGA [#16 Same State - Theophylline B]", "result units": "nM", "result": 24}
{"item sequence": "GGCAAAAGGUCGGCCGCCACUGUAGGAUGUGUUCUUUCACAUGAGGAUCACCCAUGUUGUUAUUAUAGGACCGGGAUUUUAGGAC [39MS split4]", "result units": "nM", "result": 20.6}
{"item sequence": "ACAUGAGGAUCACCCAUGUAAUCAUCAGAAGGAGCGUGGAAUAACACAGGUAGGUCGCUGAUGUUAUAUUAAUCUUAUUCGUAAA [JR_ExcArginiA_Sub003]", "result units": "nM", "result": 22}
{"item sequence": "GAGCUGAUGUAGAAAUUUUAUUUAUGAGAUACCAGUACAGAAAUGUACCCUUGGCAGCUCAUUUUUACAUGAGGAUCACCCAUGU [Ex Theophylline A 14]", "result units": "nM", "result": 13.5}
{"item sequence": "UUUUUUAUUGGGUAUAGAAUAUUAACUGAAGGAGCGUGGUAUUACACAGGUAGGUCGCAGUUUUUACAUGAGGAUCACCCAUGUU [JR_SSArginiA_Sub010]", "result units": "nM", "result": 36.1}
{"item sequence": "AGCGACAUGCGUGAUACCAGCUACAUGAGGAUCACCCAUGUACGUCAGUAAUGACUGUGUAGCCCUUGGCAGCAUAAUGCAUGUC [Exclusion - Theophylline B (Freestyle 18)]", "result units": "nM", "result": 36.1}
{"item sequence": "AUGUAGAACCGAAGGAGCGCGAUAACAUGAGGAUCACCCAUGUAGUUUUGGUGGCUUCGAUCGCAGGUAGGUCGCGGAAGUAGUA [#03 Exclusion - Arginine B]", "result units": "nM", "result": 37.9}
{"item sequence": "UGUGCAGGAUGUGUAAAAGGUCUUGGGCAUCGAGGACCGGUACGGCCGCCACUCGGCUGUACAUGAGGAUCACCCAUGUCAGGGU [#1 Same State - Tryptophan A Attempt #21 (HarryS)]", "result units": "nM", "result": 30.5}
{"item sequence": "UUCACAUGAUCUGAAUAUACAGAAAAGAAACGAGGACCGGUACGGCCGCCACUCGUGCCGGAAACAUGAGGAUCACCCAUGUGUU [AK1.3 Exclusion TrypA mod IceBolt]", "result units": "nM", "result": 19.7}
{"item sequence": "GGAUAGGACACGGCCGCCACUAGCUAGGAUACUAGCAACAUUUCCUCGCUUGAGGAUCACCCAAGUAGGACCGGGUGUCCUAUCG", "result units": "nM", "result": 302}
{"item sequence": "ACAUGAGGAUCACCCAUGUUUGAUGUUCCUCGAGGACCGGUACGGCCGCCACUCGAACGAGUGGCGCGCGAGCGCGCGCUCGCGC [aRa]", "result units": "nM", "result": 11.4}
{"item sequence": "UCAGCACAUGAGGAUCACCCAUGUCGUGAUACCAGCCUGUGCGAAGGCCCUUGGCAGCACAGUCCCGAUUUGCUUAUAUGCACUU [theeternabot_sameState_MS2_Theo_A_48]", "result units": "nM", "result": 32.4}
{"item sequence": "AAGUAAACAUGAGCAAAGCUCAUGUGCGAAGGAGCGGCGGAAACGCCAGGUAGGUCGCGCACAUGAGCAUCAGCCAUGUGUAUCA [Omei Arginine B SS A v2]", "result units": "nM", "result": 45.3}
{"item sequence": "ACAUGAGGAUCACCCAUGUGCAGCACGGAUACCAGCGUCCUAGUGCGCCCUUGGCAGCCGGACAUGAGGAUCACCCAUGUGUGGG [Exclusion Theophylline A GF30]", "result units": "nM", "result": 50.2}
{"item sequence": "CAACUGGCAGAGGAUACCAGAUCAUUUAGAAACAUGAGGAUCACCCAUGUCGUAAGGAUAAUCCCUUGGCAGCCUAUCCGCCUCG [theeternabot_sameState_MS2_Theo_B_48]", "result units": "nM", "result": 14.2}
{"item sequence": "ACAUGAGGAUCACCCAUGUACUGGAUCUAACGAGGACCGGUACGGCCGCCACUCGAAGAUAGGACUAUGGAAACAUAGCUUAUCA [Design 1]", "result units": "nM", "result": 15.3}

###

Reported apparent KD of MS2 coat protein is given for each of the following sequences.
Test system: MS2 coat protein
Experiment: apparent KD of MS2 coat protein; higher = weaker reporter binding
Details: Eterna round: R107; input ligand: tryptophan 2.4 mM

{"item sequence": "GUCGCUGAGGGAAGGAGCGUGAAGACAUGAGGAUCACCCAUGUAGAGGCGCCGAAGGCGUUCGCAGGUAGGUCGCCCUCAGUGAC [#1 Same State - Arginine B Attempt #22 (HarryS)]", "measured target": "MS2 coat protein", "apparent KD of MS2 coat protein": "16.8 nM"}
{"item sequence": "AUAAGUAAUGUUUCGUGUAUUAUUACAGAUACCAGACUAUACGUUGUCCCUUGGCAGCUGGAUUACAUGAGGAUCACCCAUGUUG [JR_ExcTheophyA_Sub002]", "measured target": "MS2 coat protein", "apparent KD of MS2 coat protein": "17.1 nM"}
{"item sequence": "AGCGUAUAGACGGAUACCAGCGCCGAUUAACAUGAGGAUCACCCAUGUAGUGUGGGUGGACGCCCUUGGCAGCCGAGUAUAGGUA [#07 Exclusion-TheophyllineB]", "measured target": "MS2 coat protein", "apparent KD of MS2 coat protein": "221 nM"}
{"item sequence": "GGCGCUGCGUCGGCCGCCACUAGCGGGUAAUGGGUGUACAUGAGGAUCACCCAUGUAAUAUGGCCUAGGACCGGGACGUGGCGCC [Moose]", "measured target": "MS2 coat protein", "apparent KD of MS2 coat protein": "620 nM"}
{"item sequence": "UGUAUGGACUGAAGGAGCGGGUUGAUAACCUGAGGAUCAUCCAGGUAAAAGGCGAAAGCCGCCCAGGUAGGUCGCAGUCCAUACU", "measured target": "MS2 coat protein", "apparent KD of MS2 coat protein": "237 nM"}
{"item sequence": "AUCUUUGAUGAUCUGGGAAAACCAGAUCGGCGAGGACCGGUACGGCCGCCACUCGUGUAUAAUAUACAUGAGGAUCACCCAUGUA [#20 Tryptophan A Same State]", "measured target": "MS2 coat protein", "apparent KD of MS2 coat protein": "25.1 nM"}

###

System: K4 kissing-loop RNA reporter;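 further: bound reporter read as fluorescence of individual clusters on recovered sequencing chips by microscopy, with normalized cluster intensities fitted with a binding model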
Assay: apparent KD of K4 kissing-loop reporter; higher = weaker reporter binding
Settings: Eterna round: R107; input ligand: tryptophan 2.4 mM
Note: every record was labeled by where its apparent KD of K4 kissing-loop reporter sits among group 1: < 100 nM; group 2: ≥ 100 nM and < 400 nM; group 3: ≥ 400 nM

{"item sequence": "AGAACUGUCUGAGAUACCAGCUAAGGAGUGAUGUUCCUAGGUCCACGAAAGUGGACCCAUAGCCCUUGGCAGCUCAGACAGUUCA [#23 K4 Theophylline B Same State]", "classification": "group 3"}
{"item sequence": "CUCACGCUCACAGAUACCAGUGGUGAUCCGGAUUGUAGUGAUGUUAAUUCCGCCAUCAUACACCCUUGGCAGCUGGCGUCACCUU [theeternabot_sameState_KL_Theo_B_31]", "classification": "group 3"}
{"item sequence": "UGUCAUGGAAACAUGAACGUUGAAAUAAGACGAGGACCGGUACGGCCGCCACUCGAAUAAUGGUCAGUGAUGUUGACUGGAAUAA [KL-SSTryp-A form1 sub7 #dotplot2>1]", "classification": "group 1"}
{"item sequence": "AAGGUUGUGCAUGGGAGUGAUGUUCCCAAGCAGGAUAUCGCUCACGCGAGAAGGGCUAGCACAACCGCUCAAGAAACUUGAGCAA [Omei KL FMN A SS C v5]", "classification": "group 2"}
{"item sequence": "GCGCGGCUCAGUGAUGUUGAGCCUCGGAGACGAGGACCGGUACGGCCGCCACUCGUCCGCGCAGCUGAGGCAAAAGCCUCGGCAA [Omei KL Tryp A SS B v3]", "classification": "group 2"}
{"item sequence": "UGAUACCAGACGGCCGCCACUAGGACCGGGAGUGAUGUUCCGAAAAUUAAAUGCUCGGCCGCCACUAGGACCGGGUCUGGUAUCU [TrypBX 28 #DoubleAptamer #SwitchBubble]", "classification": "group 2"}
{"item sequence": "UCCGGUCGGUGAGCCAGUGAUGUUGGUCAGAAGGAUAUCUGGCAACAGAGAAGGUCUGCAUCAGCCUAGAUAUCCUGGCGACCGG", "classification": "group 1"}
{"item sequence": "GGGAGUGAUGUUCCCGCGUUGACGGUCCUCCGAGGACCGGUACGGCCGCCACUCGAAACCCAGUGAUGUUGGGACUCACCGUACU [Exclusion Tryptophan A GF 11]", "classification": "group 3"}
{"item sequence": "AGUUCUUGCCGAAGGAGCGAGGCAGAGUGAUGUUCUGCAGAGGUCGAAAGACCUCAACUGCCUCAGGUAGGUCGCGGCAUGAACA [Omei KL Arginine B Exc A v6]", "classification": "group 3"}
{"item sequence": "UAUAGAAACGUCCUAUCAGUAAAAUGGGAAGGAGCGAGGAAGGACUCAGGUAGGUCGCCCAAUAACCUUAGUGAUGUUAAGGAAA [Version 2]", "classification": "group 2"}
{"item sequence": "GGCACGGUGGCGCGACUGCCGUGCGCUUGGGAGGAUAUGUUUCGUGACAGAAGGCCCAGUGAUGUUGGGUCUGUUCAAAAGGACU [Gegearer]", "classification": "group 2"}
